Values from patent US8415376B2

This listing pairs compounds with measured IC50.
# TARGET_OR_TEST_SYSTEM: PI3Kα (Homo sapiens, UniProt P42336)
# Construct: Full length p110 subunits of PI3K α, β and δ, N-terminally labeled with polyHis tag; polyHis (N); made in house; host or cells: Sf9 insect cells (baculovirus)
# Sequence (P42336 whole entry): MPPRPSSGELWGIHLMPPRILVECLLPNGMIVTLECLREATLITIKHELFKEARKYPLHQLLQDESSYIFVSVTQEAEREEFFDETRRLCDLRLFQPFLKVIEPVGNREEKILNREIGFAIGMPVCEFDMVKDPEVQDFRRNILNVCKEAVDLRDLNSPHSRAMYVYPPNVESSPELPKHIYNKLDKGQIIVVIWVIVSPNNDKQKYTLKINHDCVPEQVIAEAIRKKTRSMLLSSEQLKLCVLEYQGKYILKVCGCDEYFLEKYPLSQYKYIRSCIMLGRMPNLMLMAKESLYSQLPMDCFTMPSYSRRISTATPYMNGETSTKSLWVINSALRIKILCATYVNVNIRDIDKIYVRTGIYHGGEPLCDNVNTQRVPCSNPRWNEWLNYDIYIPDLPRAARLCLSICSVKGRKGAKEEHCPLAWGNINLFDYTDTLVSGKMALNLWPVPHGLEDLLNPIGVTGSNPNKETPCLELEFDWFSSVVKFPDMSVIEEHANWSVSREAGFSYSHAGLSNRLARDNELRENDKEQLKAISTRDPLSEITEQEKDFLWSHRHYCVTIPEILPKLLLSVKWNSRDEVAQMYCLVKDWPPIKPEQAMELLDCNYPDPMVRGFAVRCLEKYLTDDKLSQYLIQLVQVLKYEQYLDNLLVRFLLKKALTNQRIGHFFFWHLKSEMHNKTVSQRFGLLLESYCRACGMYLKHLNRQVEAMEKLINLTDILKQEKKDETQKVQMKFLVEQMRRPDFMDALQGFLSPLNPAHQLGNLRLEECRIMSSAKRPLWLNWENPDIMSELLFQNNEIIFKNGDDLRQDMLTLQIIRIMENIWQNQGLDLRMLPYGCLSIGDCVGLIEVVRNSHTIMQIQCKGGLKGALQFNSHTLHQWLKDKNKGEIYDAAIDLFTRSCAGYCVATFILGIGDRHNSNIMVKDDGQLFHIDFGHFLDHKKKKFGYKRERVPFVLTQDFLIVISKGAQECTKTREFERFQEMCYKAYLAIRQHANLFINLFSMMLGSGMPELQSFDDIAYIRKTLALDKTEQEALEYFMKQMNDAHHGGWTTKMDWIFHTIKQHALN
# Sequence (P27986 whole entry partner): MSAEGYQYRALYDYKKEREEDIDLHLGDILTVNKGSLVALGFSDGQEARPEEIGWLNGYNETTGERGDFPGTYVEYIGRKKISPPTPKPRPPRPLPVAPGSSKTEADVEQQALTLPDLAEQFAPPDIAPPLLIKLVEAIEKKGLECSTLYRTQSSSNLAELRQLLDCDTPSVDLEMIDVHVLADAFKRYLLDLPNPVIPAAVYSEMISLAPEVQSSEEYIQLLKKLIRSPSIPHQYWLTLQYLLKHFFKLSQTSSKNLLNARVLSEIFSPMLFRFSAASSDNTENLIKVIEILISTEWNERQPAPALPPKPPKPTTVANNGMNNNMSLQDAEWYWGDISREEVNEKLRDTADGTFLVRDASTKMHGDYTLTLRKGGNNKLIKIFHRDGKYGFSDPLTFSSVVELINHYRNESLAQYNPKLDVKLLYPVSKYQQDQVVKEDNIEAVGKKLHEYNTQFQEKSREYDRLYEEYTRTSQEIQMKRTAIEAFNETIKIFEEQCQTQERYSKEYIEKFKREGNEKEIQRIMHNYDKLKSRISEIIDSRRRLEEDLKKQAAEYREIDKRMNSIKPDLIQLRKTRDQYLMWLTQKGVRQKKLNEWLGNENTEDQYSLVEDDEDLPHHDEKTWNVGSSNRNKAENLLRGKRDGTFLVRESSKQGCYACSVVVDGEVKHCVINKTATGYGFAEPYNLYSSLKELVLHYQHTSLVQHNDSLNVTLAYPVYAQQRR
# TEST_PROTOCOL: In vitro PI3 kinase enzyme assay (PI3K ATP loss), alpha
# Type: biochemical
# ASSAY_CONTEXT: average if run more than once; read-out: ATP Loss (PBKα) IC50 μM (Avg)
All answers are understood in µM, so give the number only.

COC1CCCN(c2cnc3ccc(-c4cnc(Cl)c(NS(=O)(=O)c5ccc(F)cc5)c4)cc3n2)C1 (stereo not shown)    0.0027
CC(c1ccccc1)N1CCN(c2ccnc3ccc(-c4cnc(Cl)c(NS(=O)(=O)c5ccc(F)cc5)c4)cc23)CC1 (stereo not shown)    0.0069
CN(C)c1cc(-c2ccc3nccc(Cl)c3c2)cnc1Cl    0.43
CN(C)c1cc(-c2ccc3nccc(N4CCOCC4)c3c2)cnc1Cl    0.179
O=S(=O)(Nc1cc(-c2ccc3nccc(N4CCC(O)CC4)c3c2)cnc1Cl)c1ccc(F)cc1    0.0041
CC(c1ccccc1)N1CCN(c2ccnc3ccc(-c4cnc(Cl)c(N(C)C)c4)cc23)CC1 (stereo not shown)    0.294

Here's the next entry for you.
### Prompt Give the measured IC50 of CC1CN(c2cnc3ccc(-c4cnc(Cl)c(NS(=O)(=O)c5ccc(F)cc5)c4)cc3n2)CC(C)O1 (stereo not shown) .
### Response 0.0029

* * *

# TARGET_OR_TEST_SYSTEM: mTOR (Homo sapiens, UniProt P42345)
# Construct: purchased Invitrogen (Carlsbad, Calif.)
# Sequence (P42345 1360-2549 limits assumed): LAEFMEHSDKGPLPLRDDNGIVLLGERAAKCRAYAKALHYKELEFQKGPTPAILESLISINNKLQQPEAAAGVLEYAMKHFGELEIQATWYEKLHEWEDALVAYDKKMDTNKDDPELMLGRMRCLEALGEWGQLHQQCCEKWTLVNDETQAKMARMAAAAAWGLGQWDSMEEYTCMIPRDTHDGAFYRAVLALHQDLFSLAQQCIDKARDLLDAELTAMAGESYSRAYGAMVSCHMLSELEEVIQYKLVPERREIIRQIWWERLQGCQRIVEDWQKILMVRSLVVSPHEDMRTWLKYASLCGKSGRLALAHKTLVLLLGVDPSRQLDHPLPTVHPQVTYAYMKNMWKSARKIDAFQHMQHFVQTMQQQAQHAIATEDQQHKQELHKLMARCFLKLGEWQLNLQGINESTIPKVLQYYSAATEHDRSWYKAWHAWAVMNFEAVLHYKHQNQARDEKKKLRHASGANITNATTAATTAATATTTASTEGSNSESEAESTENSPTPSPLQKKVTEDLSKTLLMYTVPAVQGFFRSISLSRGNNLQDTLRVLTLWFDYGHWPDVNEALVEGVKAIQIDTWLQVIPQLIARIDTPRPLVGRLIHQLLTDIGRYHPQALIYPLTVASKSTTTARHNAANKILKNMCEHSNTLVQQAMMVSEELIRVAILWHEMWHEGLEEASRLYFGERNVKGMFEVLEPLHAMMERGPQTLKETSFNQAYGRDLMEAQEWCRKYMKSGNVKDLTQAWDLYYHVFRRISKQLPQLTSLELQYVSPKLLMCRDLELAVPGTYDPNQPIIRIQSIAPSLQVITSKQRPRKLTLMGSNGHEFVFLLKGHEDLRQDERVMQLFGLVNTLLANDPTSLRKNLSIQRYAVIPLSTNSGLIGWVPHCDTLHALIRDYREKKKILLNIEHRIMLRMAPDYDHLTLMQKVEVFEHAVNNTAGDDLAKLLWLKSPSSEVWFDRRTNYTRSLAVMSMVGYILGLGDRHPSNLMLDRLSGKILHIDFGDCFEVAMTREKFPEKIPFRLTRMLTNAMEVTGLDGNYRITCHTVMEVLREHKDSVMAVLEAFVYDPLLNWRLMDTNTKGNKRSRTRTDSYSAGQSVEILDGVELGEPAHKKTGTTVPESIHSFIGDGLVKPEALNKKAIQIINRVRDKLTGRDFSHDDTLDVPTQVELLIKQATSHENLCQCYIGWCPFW
# TEST_PROTOCOL: In vitro mTOR assay (Lanthascreen)
# Format: biochemical
# ASSAY_CONTEXT: average if run more than once
QUANTITY: log10 IC50 (log10 of the value in µM)
Please keep in mind that the values are log10 of IC50 expressed in µM.

The cases that follow already have their log10 IC50 on record.
O=S(=O)(Nc1cc(N2CCc3ncccc3C2)cnc1Cl)c1ccc(F)cc1    -0.66
C[C@@H]1CN(c2ccnc3ccc(-c4cnc(Cl)c(NS(C)(=O)=O)c4)cc23)C[C@H](C)O1    -1.99
Cc1cc(-c2ccnc3ccc(-c4cnc(Cl)c(NS(C)(=O)=O)c4)cc23)ccn1    -2.82
O=S(=O)(Nc1cc(-c2ccc3nccc(-c4ccnc(Cl)c4)c3c2)cnc1Cl)c1ccc(F)cc1    -3.22
CS(=O)(=O)Nc1cc(-c2ccc3nccc(-c4ccc(C(F)(F)F)nc4)c3c2)cnc1Cl    -2.68

### Prompt What does the data say about its log10 IC50? Entry: "CS(=O)(=O)Nc1cc(-c2ccc3nccc(N4Cc5ccc(F)cc5C4)c3c2)cnc1Cl"
### Response -0.79

### Prompt Can you look up the measured log10 IC50 of "C[C@H]1CN(c2ccnc3ccc(-c4cnc(Cl)c(NS(C)(=O)=O)c4)cc23)C[C@H](C)O1" for me?
### Response -1.86

* * *

# TARGET_OR_TEST_SYSTEM: mTOR (Homo sapiens)
# Construct: purchased Invitrogen (Carlsbad, Calif.)
# TEST_PROTOCOL: In vitro mTOR assay (Lanthascreen)
# Assay type: biochemical
# ASSAY_CONTEXT: average if run more than once
QUANTITY: IC50
Answer with the value and then the unit.

CS(=O)(=O)Nc1cc(-c2ccc3nccc(-c4ccnc(C(F)(F)F)c4)c3c2)cnc1Cl    0.0028 µM

### Prompt State the recorded IC50 for this entry: "CS(=O)(=O)Nc1cc(-c2ccc3nccc(-c4cccnc4)c3c2)cnc1-c1cccnc1"
### Response 0.0015 µM

### Prompt What measured IC50 goes with "COC(C)(C)CNc1ccnc2ccc(-c3cnc(Cl)c(NS(C)(=O)=O)c3)cc12" ?
### Response 0.363 µM

### Prompt If you can, please state the reported IC50 value of "COc1ccc(OC)c(CNc2ccnc3ccc(-c4cnc(Cl)c(NS(C)(=O)=O)c4)cc23)c1" .
### Response 0.295 µM

### Prompt Can you look up the measured IC50 of "CS(=O)(=O)Nc1cc(-c2ccc3nccc(-c4cccnc4)c3c2)cnc1Cl" for me?
### Response 0.0029 µM

### Prompt Can you look up the measured IC50 of "COc1ncc(-c2ccc3nccc(-c4ccncc4)c3c2)cc1NS(C)(=O)=O" for me?
### Response 0.0048 µM

### Prompt IC50 for "CS(=O)(=O)Nc1cc(-c2ccc3nccc(-c4ccncc4)c3c2)cnc1Cl" ?
### Response 0.0012 µM

### Prompt Which IC50 value is on record for "COc1ncc(-c2ccc3nccc(N4CCOCC4)c3c2)cc1NS(C)(=O)=O" ?
### Response 0.0176 µM
